Test system: CDK1-dependent Eg-5 phosphorylation on threonine 927
Assay: In-cell Eg-5 phosphorylation (immunoblot)
Type: cell-based, human
Settings: Homo sapiens, HCT-116; HCT116 cells, 1 h
MEASUREMENT TYPE: IC50

Q) Write down the reported IC50 of CC(C)c1nn(-c2c(Cl)cncc2Cl)c2nc(Cc3ccc(CN4CCCC4)c(O)c3)[nH]c(=O)c12 , test system: CDK1-dependent Eg-5 phosphorylation on threonine 927.
A) ~3 µM

----------
Tested on: cell lines A2780, HCT-116, HT-29, HepG2, NCI/ADR-RES, OVCAR3, H460, IMR-90, T98G, A549 among others
Assay: Inhibition of proliferation in a set of cancer-model cell lines
Type: cell-based
Conditions: read-out: IC50 values, inhibition of proliferation (range over cell lines)
Procedure: The assays used for determining the properties of the kinase inhibitors were performed in accordance with standard procedures well known to those skilled in the art. For example, assays for determining inhibitory activity on CDKs or in cellular assays are described in WO 00/218962, WO 2005/026129, and WO 2005/063765. […]
pIC50: −log10 of the molar value.
MEASUREMENT TYPE: pIC50

Q) Which pIC50 is listed for CC(C)c1nn(-c2c(Cl)cncc2Cl)c2nc(Cc3ccc(CN4CCCC4)c(O)c3)[nH]c(=O)c12 ?
A) 6.10 to 8.00
